Biological target: Adrenergic alpha2B (Homo sapiens, UniProt P18089)
Sequence (P18089 whole entry): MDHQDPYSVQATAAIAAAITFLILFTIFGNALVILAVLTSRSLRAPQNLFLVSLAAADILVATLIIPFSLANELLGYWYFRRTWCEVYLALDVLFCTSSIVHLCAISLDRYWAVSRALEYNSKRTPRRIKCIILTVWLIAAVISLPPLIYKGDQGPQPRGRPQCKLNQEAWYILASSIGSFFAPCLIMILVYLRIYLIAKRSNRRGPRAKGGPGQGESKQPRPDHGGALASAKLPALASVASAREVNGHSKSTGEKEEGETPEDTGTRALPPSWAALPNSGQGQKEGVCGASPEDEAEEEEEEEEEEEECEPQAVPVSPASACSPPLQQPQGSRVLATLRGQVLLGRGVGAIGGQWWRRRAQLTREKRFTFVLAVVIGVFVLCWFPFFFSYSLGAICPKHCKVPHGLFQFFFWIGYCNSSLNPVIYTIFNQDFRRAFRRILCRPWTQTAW
Assay: Adrenergic alpha2B binding
pKi: −log10 of the molar value. Where a name gives a salt, the structure may show the parent alone.
ASSAY READOUT: pKi

Cc1cc2n(c1)Cc1cc(Cl)ccc1N=C2N1CCN(CC(C)(C)C(=O)O)CC1 [Example 13, dihydrochloride] : < 5.32

Now for the compound whose pKi we want.
Input: What does the data say about its pKi? Entry: Cc1cc2n(c1)Cc1cc(Cl)ccc1N=C2N1CCN(CC(C)(C)C(=O)O)CC1 [Example 1]
Output: < 5.30

* * *

Target: 5-HT1D (Homo sapiens, UniProt P28221)
Sequence (P28221 whole entry, species assumed): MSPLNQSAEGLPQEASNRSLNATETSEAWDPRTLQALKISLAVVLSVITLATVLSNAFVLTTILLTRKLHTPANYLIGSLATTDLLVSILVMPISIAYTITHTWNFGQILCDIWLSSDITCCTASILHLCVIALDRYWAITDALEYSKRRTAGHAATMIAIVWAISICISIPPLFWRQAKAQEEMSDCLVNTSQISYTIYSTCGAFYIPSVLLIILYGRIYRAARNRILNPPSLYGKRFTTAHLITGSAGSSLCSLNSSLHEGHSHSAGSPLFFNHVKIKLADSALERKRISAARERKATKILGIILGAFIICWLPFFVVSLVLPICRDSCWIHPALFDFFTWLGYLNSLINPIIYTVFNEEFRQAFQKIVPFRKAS
Where a name gives a salt, the structure may show the parent alone.
Ki values, listed per item

Cc1cc2n(c1)Cc1cc(Cl)ccc1N=C2N1CCN(CC(C)(C)C(=O)O)CC1 [Example 13, dihydrochloride] : > 8.55 µM

Now for the compound whose Ki we want.
Input: What does the data say about its Ki? Entry: Cc1cc2n(c1)Cc1cc(Cl)ccc1N=C2N1CCN(CC(C)(C)C(=O)O)CC1 [Example 1]
Output: > 3.98 µM
